Values from paper PMC4369446

target: T1, KIAA0735 peptide on HLA-A*02:01 (human); test: cytokine release
T1 peptide: LISGIGIGGA
readoutName: binding result

| binder | reported |
| --- | --- |
| SIG35α / TRBV27 Cl.523 (TCR) alpha TRAV12-2 J35 CDR3: CAVSIGFGNVL beta TRBV27 TRBJ2-7 CDR3: CASGSYEQYF | recognises |
| SIG35α / TRBV27 Cl.788 (TCR) alpha TRAV12-2 J35 CDR3: CAVSIGFGNVL beta TRBV27 TRBJ2-7 CDR3: CASGPSYEQYF | no recognition |
| SIG35α / TRBV27 Cl.1574 (TCR) alpha TRAV12-2 J35 CDR3: CAVSIGFGNVL beta TRBV27 TRBJ1-1 CDR3: CASSPWERINTEAFF | recognises |
| SIG35α / TRBV27 Cl.758 (TCR) alpha TRAV12-2 J35 CDR3: CAVSIGFGNVL beta TRBV27 TRBJ2-2 CDR3: CASSPRLAGDGELFF | no recognition |
| SIG35α / TRBV27 Cl.1086 (TCR) alpha TRAV12-2 J35 CDR3: CAVSIGFGNVL beta TRBV27 TRBJ1-2 CDR3: CASSLHGPGGYTF | no recognition |
| SIG35α / TRBV27 Cl.1593 (TCR) alpha TRAV12-2 J35 CDR3: CAVSIGFGNVL beta TRBV27 TRBJ1-5 CDR3: CASGNNQPQHF | recognises |
| SIG35α / TRBV27 Cl.794 (TCR) alpha TRAV12-2 J35 CDR3: CAVSIGFGNVL beta TRBV27 TRBJ1-2 CDR3: CASSLLGDYGYTF | recognises |
